Sourced from patent US5700833A

System: prostacyclin receptor (CNS) in the thalamus ([^3 H] isocarbacyclin receptor)
Assay: Displacement test relative to tritium-labelled isocarbacyclin, thalamus (CNS), autoradiography of frozen brain sections
Assay type: binding, rat
Details: thalamus (CNS); un-labelled compound 10^-6 M; 10 nM [^3 H]isocarbacyclin; 4° C., 2 h, pH 7.4; 1 µM
Just a reminder that ties go to f: only Binding ratio to [^3 H] isocarbacyclin receptor strictly below 20% counts as t.

>>> print(df.to_string())
                                  structure  class
0  Cc1cccc(CCC[C@H](O)/C=C/[C@@H]2[C@H]3CC(CCCCC(=O)O)=C[C@H]3C[C@H]2O)c1      f
1  CCCCC[C@H](O)/C=C/[C@@H]1[C@H]2CC(CCCCC(=O)O)=C[C@H]2C[C@H]1O      t
2  Cc1cccc(CCC[C@@H](O)/C=C/[C@@H]2[C@H]3CC(CCCCC(=O)O)=C[C@H]3C[C@H]2O)c1      f
3  Cc1cccc(C[C@@H](O)/C=C/[C@@H]2[C@H]3CC(CCCCC(=O)O)=C[C@H]3C[C@H]2O)c1      t

====

Biological target: prostacyclin receptor (PNS) in the medulla oblongata nucleus ([^3 H] isocarbacyclin receptor) (Rattus norvegicus)
Construct: Blood ingredients were removed from the brain of a rat by systemic perfusion; from tissue; host or cells: rat brain, frozen sections, medulla oblongata nucleus (nucleus solitarius) read by autoradiography
Sequence (P43253 whole entry, the tested form may be a part): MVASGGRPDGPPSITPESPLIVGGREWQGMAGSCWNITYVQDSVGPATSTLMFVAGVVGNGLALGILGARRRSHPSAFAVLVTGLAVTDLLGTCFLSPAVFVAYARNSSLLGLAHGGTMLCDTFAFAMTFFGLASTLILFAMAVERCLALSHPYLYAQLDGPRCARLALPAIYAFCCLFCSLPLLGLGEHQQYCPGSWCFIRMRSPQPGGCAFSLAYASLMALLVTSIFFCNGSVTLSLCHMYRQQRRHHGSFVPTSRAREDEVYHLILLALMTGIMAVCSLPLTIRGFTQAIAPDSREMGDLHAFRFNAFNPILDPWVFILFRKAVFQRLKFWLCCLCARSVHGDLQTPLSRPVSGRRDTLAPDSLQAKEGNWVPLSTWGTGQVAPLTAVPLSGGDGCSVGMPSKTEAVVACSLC
Test: Displacement test relative to tritium-labelled isocarbacyclin, medulla oblongata nucleus (PNS), autoradiography of frozen brain sections
Details: un-labelled compound 10^-6 M, 10 nM [^3 H]isocarbacyclin, 4° C., 2 h, pH 7.4, read-out: Binding ratio to [^3 H] isocarbacyclin receptor
property: activity at 1 µM (%)

In [3]: df
Out[3]:
                                  structure  output_unit  measured_value
0  Cc1cccc(CCC[C@H](O)/C=C/[C@@H]2[C@H]3CC(CCCCC(=O)O)=C[C@H]3C[C@H]2O)c1            %            34.4
1  CCCCC[C@H](O)/C=C/[C@@H]1[C@H]2CC(CCCCC(=O)O)=C[C@H]2C[C@H]1O            %               8
2  Cc1cccc(C[C@@H](O)/C=C/[C@@H]2[C@H]3CC(CCCCC(=O)O)=C[C@H]3C[C@H]2O)c1            %            52.5
3  Cc1cccc(C[C@H](O)/C=C/[C@@H]2[C@H]3CC(CCCCC(=O)O)=C[C@H]3C[C@H]2O)c1            %            33.8
4  Cc1cccc(CCC[C@@H](O)/C=C/[C@@H]2[C@H]3CC(CCCCC(=O)O)=C[C@H]3C[C@H]2O)c1            %            53.5

====

Target: prostacyclin receptor (PNS) in the medulla oblongata nucleus ([^3 H] isocarbacyclin receptor) (Rattus norvegicus)
Construct: Blood ingredients were removed from the brain of a rat by systemic perfusion; from tissue; host or cells: rat brain, frozen sections, medulla oblongata nucleus (nucleus solitarius) read by autoradiography
Test: Displacement test relative to tritium-labelled isocarbacyclin, medulla oblongata nucleus (PNS), autoradiography of frozen brain sections
Details: un-labelled compound 3 × 10^-9 M, 10 nM [^3 H]isocarbacyclin, 4° C., 2 h, pH 7.4, read-out: Binding ratio to [^3 H] isocarbacyclin receptor
property: activity at 0.003 µM (%)

In [3]: df
Out[3]:
                                  structure  measured_value
0  Cc1cccc(C[C@H](O)/C=C/[C@@H]2[C@H]3CC(CCCCC(=O)O)=C[C@H]3C[C@H]2O)c1            96.6
1  Cc1cccc(CCC[C@H](O)/C=C/[C@@H]2[C@H]3CC(CCCCC(=O)O)=C[C@H]3C[C@H]2O)c1            96.9
2  CCCCC[C@H](O)/C=C/[C@@H]1[C@H]2CC(CCCCC(=O)O)=C[C@H]2C[C@H]1O              94
3  Cc1cccc(CCC[C@@H](O)/C=C/[C@@H]2[C@H]3CC(CCCCC(=O)O)=C[C@H]3C[C@H]2O)c1              95

====

Test system: prostacyclin receptor (CNS) in the thalamus ([^3 H] isocarbacyclin receptor)
Experiment: Displacement test relative to tritium-labelled isocarbacyclin, thalamus (CNS), autoradiography of frozen brain sections
Format: binding, rat
Conditions: thalamus (CNS); un-labelled compound 3 × 10^-9 M; 10 nM [^3 H]isocarbacyclin; 4° C., 2 h, pH 7.4
property: Binding ratio to [^3 H] isocarbacyclin receptor (%)

                                  structure  measured_value
0  CCCCC[C@H](O)/C=C/[C@@H]1[C@H]2CC(CCCCC(=O)O)=C[C@H]2C[C@H]1O            99.2
1  Cc1cccc(CCC[C@H](O)/C=C/[C@@H]2[C@H]3CC(CCCCC(=O)O)=C[C@H]3C[C@H]2O)c1           101.1
2  Cc1cccc(C[C@@H](O)/C=C/[C@@H]2[C@H]3CC(CCCCC(=O)O)=C[C@H]3C[C@H]2O)c1            97.4
3  Cc1cccc(C[C@H](O)/C=C/[C@@H]2[C@H]3CC(CCCCC(=O)O)=C[C@H]3C[C@H]2O)c1            98.6
4  Cc1cccc(CCC[C@@H](O)/C=C/[C@@H]2[C@H]3CC(CCCCC(=O)O)=C[C@H]3C[C@H]2O)c1            98.7

====

System: prostacyclin receptor (CNS) in the thalamus ([^3 H] isocarbacyclin receptor)
Test: Displacement test relative to tritium-labelled isocarbacyclin, thalamus (CNS), autoradiography of frozen brain sections
Format: binding, rat
Conditions: thalamus (CNS); un-labelled compound 3 × 10^-8 M; 10 nM [^3 H]isocarbacyclin; 4° C., 2 h, pH 7.4; 0.03 µM
Attribute: Binding ratio to [^3 H] isocarbacyclin receptor
property: Binding ratio to [^3 H] isocarbacyclin receptor (%)

In [3]: df
Out[3]:
                                   compound  measured_value
0  Cc1cccc(C[C@@H](O)/C=C/[C@@H]2[C@H]3CC(CCCCC(=O)O)=C[C@H]3C[C@H]2O)c1 [Compound A]            67.0
1  Cc1cccc(CCC[C@@H](O)/C=C/[C@@H]2[C@H]3CC(CCCCC(=O)O)=C[C@H]3C[C@H]2O)c1 [Compound C]            93.8
2  Cc1cccc(CCC[C@H](O)/C=C/[C@@H]2[C@H]3CC(CCCCC(=O)O)=C[C@H]3C[C@H]2O)c1 [Compound D]            98.4
3  Cc1cccc(C[C@H](O)/C=C/[C@@H]2[C@H]3CC(CCCCC(=O)O)=C[C@H]3C[C@H]2O)c1 [Compound B]            84.6
4  CCCCC[C@H](O)/C=C/[C@@H]1[C@H]2CC(CCCCC(=O)O)=C[C@H]2C[C@H]1O [Isocarbacyclin, 9(O)-methano-Δ^6(9α) prostaglandin I1]            76.4

====

Attribute: activity at 0.3 µM
Target: prostacyclin receptor (PNS) in the medulla oblongata nucleus ([^3 H] isocarbacyclin receptor) (Rattus norvegicus)
Construct: Blood ingredients were removed from the brain of a rat by systemic perfusion; from tissue; host or cells: rat brain, frozen sections, medulla oblongata nucleus (nucleus solitarius) read by autoradiography
Test: Displacement test relative to tritium-labelled isocarbacyclin, medulla oblongata nucleus (PNS), autoradiography of frozen brain sections
Conditions: un-labelled compound 3 × 10^-7 M, 10 nM [^3 H]isocarbacyclin, 4° C., 2 h, pH 7.4, read-out: Binding ratio to [^3 H] isocarbacyclin receptor
property: activity at 0.3 µM (%)

>>> print(df.to_string())
                                   compound  measured_value
0  CCCCC[C@H](O)/C=C/[C@@H]1[C@H]2CC(CCCCC(=O)O)=C[C@H]2C[C@H]1O [Isocarbacyclin, 9(O)-methano-Δ^6(9α) prostaglandin I1]            22.5
1  Cc1cccc(CCC[C@H](O)/C=C/[C@@H]2[C@H]3CC(CCCCC(=O)O)=C[C@H]3C[C@H]2O)c1 [Compound D]            45.8
2  Cc1cccc(CCC[C@@H](O)/C=C/[C@@H]2[C@H]3CC(CCCCC(=O)O)=C[C@H]3C[C@H]2O)c1 [Compound C]            71.8
3  Cc1cccc(C[C@@H](O)/C=C/[C@@H]2[C@H]3CC(CCCCC(=O)O)=C[C@H]3C[C@H]2O)c1 [Compound A]            69.8
4  Cc1cccc(C[C@H](O)/C=C/[C@@H]2[C@H]3CC(CCCCC(=O)O)=C[C@H]3C[C@H]2O)c1 [Compound B]            39.5
